- System: 379773-124-R-J2-PDC spheroid viability
- PROCEDURE TEXT: Anticancer human tumor 379773-124-R-J2-PDC patient-derived endometrial carcinoma cell line growth inhibition [POLQ]; active means viability on the fitted dose curve at most 10% of control; inactive means the rest
- PARTICULARS: second compound 0.0316 µM; first compound 1 µM; spheroids with HUVEC and MSC
Labels: active, inactive

COMPOUND: CC1COCCN1c1cc(C2(S(C)(=N)=O)CC2)nc(-c2ccnc3[nH]ccc23)n1 (stereo not given) + COC1C(OC(N)=O)C(O)C(Oc2ccc3c(O)c(NC(=O)c4ccc(O)c(CC=C(C)C)c4)c(=O)oc3c2C)OC1(C)C
GROUP LABEL: inactive

COMPOUND: CC(C)n1c(=O)n(C)c2cnc3cc(F)c(-c4ccc(OCCCN5CCCCC5)nc4)cc3c21 + COC1C(OC(N)=O)C(O)C(Oc2ccc3c(O)c(NC(=O)c4ccc(O)c(CC=C(C)C)c4)c(=O)oc3c2C)OC1(C)C
GROUP LABEL: inactive

COMPOUND: CCCS(=O)(=O)Nc1ccc(F)c(C(=O)c2c[nH]c3ncc(-c4ccc(Cl)cc4)cc23)c1F + Cc1cccc(N(C)C(=O)C2C(O)CCN2c2nc(C)cc(C(F)(F)F)c2C#N)c1
GROUP LABEL: inactive

COMPOUND: COc1cccc2c1C(=O)c1c(O)c3c(c(O)c1C2=O)CC(O)(C(=O)CO)CC3OC1CC(N)C(O)C(C)O1 (stereo not given) + COC1C(OC(N)=O)C(O)C(Oc2ccc3c(O)c(NC(=O)c4ccc(O)c(CC=C(C)C)c4)c(=O)oc3c2C)OC1(C)C
GROUP LABEL: active

COMPOUND: O=c1[nH]cc(F)c(=O)[nH]1 + Cc1cccc(N(C)C(=O)C2C(O)CCN2c2nc(C)cc(C(F)(F)F)c2C#N)c1
GROUP LABEL: inactive

----------
- System: 379773-124-R-J2-PDC spheroid viability
- PROCEDURE TEXT: Anticancer human tumor 379773-124-R-J2-PDC cell line growth inhibition [POLQ]; active = viability on the fitted dose curve at most 10% of control; inactive = the rest;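 further: spheroids exposed to drugs for seven days before readout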
- PARTICULARS: second compound 0.0316 µM; first compound 1 µM; spheroids with HUVEC and MSC
- Protocol: Multicellular complex tumor spheroid response to Polymerase (POL) inhibitors (novobiocin, ART-558, RP6685) in combination with a variety of drugs and investigational agents in selected tumor cell lines The POL inhibitors (novobiocin, ART-558, and RP6685) were evaluated both individually and in combination with standard of care and investigational anticancer small molecules within a complex spheroid model of solid tumors. . […]
Labels: active, inactive

COMPOUND: O=C(Nc1ccc(O)c(NS(=O)(=O)c2ccc(F)cc2)c1)c1ccc(-c2ccccc2)cc1 + Cc1cccc(N(C)C(=O)C2C(O)CCN2c2nc(C)cc(C(F)(F)F)c2C#N)c1
GROUP LABEL: inactive
//
COMPOUND: CC1COCCN1c1cc(C2(O)CC3CCC(C2)O3)c2cnn(-c3ccn[nH]3)c2n1 (stereo unspecified) + Nc1ccc(C#CCN(C(=O)Cc2ncc(C(F)(F)F)cc2C(F)(F)F)c2ccc(F)cc2)nn1
GROUP LABEL: active
//
COMPOUND: COc1cc(C2c3cc4c(cc3C(OC3OC5COC(C)OC5C(O)C3O)C3COC(=O)C23)OCO4)cc(OC)c1O (stereo unspecified) + Nc1ccc(C#CCN(C(=O)Cc2ncc(C(F)(F)F)cc2C(F)(F)F)c2ccc(F)cc2)nn1
GROUP LABEL: inactive
//
COMPOUND: CC1COCCN1c1cc(-c2ccnn2C)c2ccnc(-c3ccn[nH]3)c2n1 (stereo unspecified) + Cc1cccc(N(C)C(=O)C2C(O)CCN2c2nc(C)cc(C(F)(F)F)c2C#N)c1
GROUP LABEL: active
//
COMPOUND: O=C(c1cc(Cc2n[nH]c(=O)c3ccccc23)ccc1F)N1CCN(C(=O)C2CC2)CC1 + Nc1ccc(C#CCN(C(=O)Cc2ncc(C(F)(F)F)cc2C(F)(F)F)c2ccc(F)cc2)nn1
GROUP LABEL: inactive
//
COMPOUND: Nc1ccn(C2OC(CO)C(O)C2(F)F)c(=O)n1 (stereo unspecified) + Cc1cccc(N(C)C(=O)C2C(O)CCN2c2nc(C)cc(C(F)(F)F)c2C#N)c1
GROUP LABEL: active

----------
- System: 379773-124-R-J2-PDC spheroid viability
- PROCEDURE TEXT: Anticancer human tumor 379773-124-R-J2-PDC cell line growth inhibition [POLQ];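 further: spheroids exposed to drugs for seven days before readout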
- PARTICULARS: second compound 3.16 µM; first compound 0.1 µM; active compounds read low; spheroids with HUVEC and MSC
Could you please mark fulfilled for values of viability, T/C below 80% and not fulfilled for values at or above it?

COMPOUND: C=CC(=O)N1CCN(c2nc(=O)n(-c3c(C)ccnc3C(C)C)c3nc(-c4c(O)cccc4F)c(F)cc23)C(C)C1 (stereo not given) + Nc1ccc(C#CCN(C(=O)Cc2ncc(C(F)(F)F)cc2C(F)(F)F)c2ccc(F)cc2)nn1
GROUP LABEL: not fulfilled

COMPOUND: CCc1cc2c(N3CCc4c(cc(Cn5ccnc5)cc4-c4cn(C)nc4C(F)(F)F)C3=O)ccnc2c(OC)n1 + COC1C(OC(N)=O)C(O)C(Oc2ccc3c(O)c(NC(=O)c4ccc(O)c(CC=C(C)C)c4)c(=O)oc3c2C)OC1(C)C
GROUP LABEL: fulfilled

COMPOUND: O=C(c1cc(Cc2n[nH]c(=O)c3ccccc23)ccc1F)N1CCN(C(=O)C2CC2)CC1 + COC1C(OC(N)=O)C(O)C(Oc2ccc3c(O)c(NC(=O)c4ccc(O)c(CC=C(C)C)c4)c(=O)oc3c2C)OC1(C)C
GROUP LABEL: not fulfilled

COMPOUND: O=c1[nH]cc(F)c(=O)[nH]1 + Nc1ccc(C#CCN(C(=O)Cc2ncc(C(F)(F)F)cc2C(F)(F)F)c2ccc(F)cc2)nn1
GROUP LABEL: not fulfilled

COMPOUND: CC[C@@]1(O)C(=O)OCc2c1cc1n(c2=O)Cc2cc3c(CN(C)C)c(O)ccc3nc2-1 + Cc1cccc(N(C)C(=O)C2C(O)CCN2c2nc(C)cc(C(F)(F)F)c2C#N)c1
GROUP LABEL: fulfilled

COMPOUND: Cn1ncnc1[C@H]1c2n[nH]c(=O)c3cc(F)cc(c23)N[C@@H]1c1ccc(F)cc1 + Cc1cccc(N(C)C(=O)C2C(O)CCN2c2nc(C)cc(C(F)(F)F)c2C#N)c1
GROUP LABEL: fulfilled

COMPOUND: C#Cc1c(F)ccc2cc(O)cc(-c3ncc4c(N5CC6CCC(C5)N6)nc(OCC56CCCN5CC(F)C6)nc4c3F)c12 (stereo not given) + Cc1cccc(N(C)C(=O)C2C(O)CCN2c2nc(C)cc(C(F)(F)F)c2C#N)c1
GROUP LABEL: not fulfilled

COMPOUND: C#Cc1c(F)ccc2cc(O)cc(-c3ncc4c(N5CC6CCC(C5)N6)nc(OCC56CCCN5CC(F)C6)nc4c3F)c12 (stereo not given) + Nc1ccc(C#CCN(C(=O)Cc2ncc(C(F)(F)F)cc2C(F)(F)F)c2ccc(F)cc2)nn1
GROUP LABEL: not fulfilled

COMPOUND: CCc1c2c(nc3ccc(O)cc13)-c1cc3c(c(=O)n1C2)COC(=O)[C@]3(O)CC + Nc1ccc(C#CCN(C(=O)Cc2ncc(C(F)(F)F)cc2C(F)(F)F)c2ccc(F)cc2)nn1
GROUP LABEL: fulfilled

----------
- Test system: 379773-124-R-J2-PDC spheroid viability
- PROCEDURE TEXT: Anticancer human tumor 379773-124-R-J2-PDC cell line growth inhibition [POLQ]; active = viability on the fitted dose curve at most 10% of control; inactive = the rest;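 further: spheroids exposed to drugs for seven days before readout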
- PARTICULARS: second compound 1 µM; first compound 1 µM; spheroids with HUVEC and MSC
Labels: true (active), false (inactive)

COMPOUND: C#Cc1c(F)ccc2cc(O)cc(-c3ncc4c(N5CC6CCC(C5)N6)nc(OCC56CCCN5CC(F)C6)nc4c3F)c12 (stereo unspecified) + Cc1cccc(N(C)C(=O)C2C(O)CCN2c2nc(C)cc(C(F)(F)F)c2C#N)c1
GROUP LABEL: false

COMPOUND: CC1COCCN1c1cc(-c2ccnn2C)c2ccnc(-c3ccn[nH]3)c2n1 (stereo unspecified) + COC1C(OC(N)=O)C(O)C(Oc2ccc3c(O)c(NC(=O)c4ccc(O)c(CC=C(C)C)c4)c(=O)oc3c2C)OC1(C)C
GROUP LABEL: true

COMPOUND: CC1COCCN1c1cc(C2(S(C)(=N)=O)CC2)nc(-c2ccnc3[nH]ccc23)n1 (stereo unspecified) + Cc1cccc(N(C)C(=O)C2C(O)CCN2c2nc(C)cc(C(F)(F)F)c2C#N)c1
GROUP LABEL: false

COMPOUND: CCc1cc2c(N3CCc4c(cc(Cn5ccnc5)cc4-c4cn(C)nc4C(F)(F)F)C3=O)ccnc2c(OC)n1 + COC1C(OC(N)=O)C(O)C(Oc2ccc3c(O)c(NC(=O)c4ccc(O)c(CC=C(C)C)c4)c(=O)oc3c2C)OC1(C)C
GROUP LABEL: false

COMPOUND: CNCc1ccc(-c2[nH]c3cc(F)cc4c3c2CCNC4=O)cc1 + Nc1ccc(C#CCN(C(=O)Cc2ncc(C(F)(F)F)cc2C(F)(F)F)c2ccc(F)cc2)nn1
GROUP LABEL: false

COMPOUND: COc1cccc2c1C(=O)c1c(O)c3c(c(O)c1C2=O)CC(O)(C(=O)CO)CC3OC1CC(N)C(O)C(C)O1 (stereo unspecified) + COC1C(OC(N)=O)C(O)C(Oc2ccc3c(O)c(NC(=O)c4ccc(O)c(CC=C(C)C)c4)c(=O)oc3c2C)OC1(C)C
GROUP LABEL: true
